Assign melting point to each entry below.

Form field: reported melting point of O=C(O)c1cccc(-n2cc3c(n2)-c2ccccc2CC3)c1
191 to 192 °C

Which melting point is listed for CC(C)c1ccc(-c2nn(Cc3ccc(C(=O)O)cc3)c(=O)o2)cc1 ?
217 to 219 °C

What melting point value was documented for this molecule, Cc1ccc(-n2cnc(-c3cccc(C(=O)O)c3)n2)cc1 ?
263 to 265 °C

Which melting point reading was recorded for the molecule O=C(O)c1ccc([N+](=O)[O-])c(-c2cnn(-c3ccc(Cl)cc3)c2)c1 ?
270 to 271 °C

// melting point lookup, key: O=C(O)c1ccc(-c2ccn(-c3ccc(OC(F)(F)F)cc3)c2)cc1
318 to 320 °C

Form field: reported melting point of O=C(O)c1cccc(-n2cc(-c3cnc4ccccc4n3)cn2)c1
325 to 326 °C

Which melting point reading was recorded for the molecule COc1ccc2c(c1)-c1nn(-c3ccc(C(=O)O)cc3)cc1C2 ?
304 to 306 °C

What measured melting point goes with O=C(O)c1cccc(-c2ncn(-c3ccc(-c4ccccc4)cc3)n2)c1 ?
263 to 265 °C

Returns the measured melting point for the input molecule. Input: O=C(O)c1cccc(-n2cc(-c3cccc(Cl)c3)cn2)c1
178 to 180 °C

====

measurement.name: melting point

For the molecule COc1ccccc1-n1ccc(-c2ccc(C(=O)O)cc2)c1 , what melting point is on record?
200 to 202 °C

May I ask what melting point has been recorded for COc1ccc(-n2ccc(-c3cccc(C(=O)O)c3)n2)cc1 ?
160 to 161 °C

Which melting point is listed for CC(=O)c1ccc(-n2ccc(-c3ccc(C(=O)O)cc3)n2)cc1 ?
278 to 279 °C

I have this molecule here, O=C(O)c1cccc(-c2ncn(-c3ccc(-c4ccc(F)cc4)cc3)n2)c1 , and I need its recorded melting point.
272 to 275 °C

Would you mind telling me what melting point value was observed for Cc1ccccc1-n1ccc(-c2cccc(C(=O)O)c2)c1 ?
161 to 163 °C

Tell me the measured melting point of O=C(O)c1cccc(-c2cnn(-c3cccc(OC(F)(F)F)c3)c2)c1 , please.
143 to 145 °C

For O=C(O)c1cccc(-c2ccn(-c3ccccc3Cl)c2)c1 , what is its reported melting point?
198 to 200 °C

Can you share its melting point? I mean this molecule: COc1cccc2c1Cc1cn(-c3ccc(C(=O)O)cc3)nc1-2
311 to 313 °C

melting point for COc1ccc(-c2cn(-c3ccc(C(=O)O)cc3)nn2)c(C)c1 ?
244 to 245 °C

====

measurement.name: melting point

Entry O=C(O)c1cccc(-c2ncn(-c3ccc([N+](=O)[O-])cc3)n2)c1 has what melting point?
284 to 286 °C

Report melting point for N#Cc1cccc(-c2ccn(-c3ccc(C(F)(F)F)cc3)n2)c1 please.
70 to 74 °C

Fill in: melting point of CC(C)c1ccc(-c2cn(-c3cccc(C(=O)O)c3)c(N)n2)cc1 is ___
279 to 282 °C (dec.)

What value of measured melting point is listed for Cc1ccc(-n2ccc(-c3cccc(C(=O)O)c3)c2)cc1F ?
205 to 208 °C

Look up melting point for this compound: COc1ccccc1-n1ccc(-c2cccc(C(=O)O)c2)c1
> 350 °C

Would you mind telling me what melting point value was observed for CCOc1ccc(-c2cn(-c3ccc(C(=O)O)cc3)nn2)cc1 ?
310 to 311 °C

Returns the measured melting point for the input compound. Input: O=C(O)c1cccc(-n2ncc3c2CCc2ccccc2-3)c1
273 to 275 °C

What does the record list as melting point for O=C(O)c1cccc(-c2ccn(-c3ccc4c(c3)OCO4)n2)c1 ?
210 to 215 °C

Given the compound O=C(O)c1ccc(-c2ccn(-c3ccc4[nH]ccc4c3)n2)cc1 , what is its reported melting point?
281 to 282 °C

====

measurement.name: melting point

Which melting point value belongs to COc1cccc(-c2ccn(-c3ccc(C(=O)O)cc3)n2)c1 ?
200 to 202 °C

Which melting point is reported for this compound? CC(C)c1ccc(-n2cc(-c3ccc(C(=O)O)cc3)cn2)cc1
215 to 218 °C

For O=C(O)c1cccc(-n2ccc(-c3ccc(F)cc3)n2)c1 , what is its reported melting point?
237 to 240 °C

Need melting point of CC(C)c1ccc(-n2ccc(-c3ccc(C(=O)O)cc3)c2)cc1 , thanks.
240 to 243 °C

Query: melting point; subject: COc1ccc2c(c1)CCc1cn(-c3cccc(C(=O)O)c3)nc1-2
217 to 218 °C

# lookup: melting point of CC(C)c1ccc(-c2nn(-c3cccc(C(=O)O)c3)c(=O)o2)cc1
218 to 220 °C

Suppose we examine the compound Cc1cccc(-n2ccc(-c3cccc(C(=O)O)c3)n2)c1 ; what melting point value has been reported?
162 to 164 °C

Given the entry O=C(O)c1cccc(-c2ncn(-c3ccc(C(F)(F)F)cc3)n2)c1 , report its measured melting point.
141 to 143 °C

Need melting point, item O=C(O)c1ccc(-c2cnn(-c3cccc(OC(F)F)c3)c2)cc1
255 to 257 °C

====

measurement.name: melting point

Please give the measured melting point for this compound: O=C(O)c1cccc(-c2ncn(-c3ccccn3)n2)c1 [Compound 36]
241 to 244 °C

Field request: melting point | item: O=C(O)c1ccc(-n2cc(-c3cccc(F)c3)cn2)cc1 [Compound 212]
261 to 265 °C

So what does the record say about melting point for O=C(O)c1ccc(-c2ccn(-c3ccc4c(c3)OCCO4)c2)cc1 [Compound 150] ?
273 to 276 °C

Look up melting point: O=C(O)c1cccc(-c2ccn(-c3ccc4c(c3)OCO4)c2)c1 [Compound 247]
177 to 180 °C

Look up melting point for this compound: O=C(O)c1ccc(-n2cc(-c3ccncc3)cn2)cc1 [Compound 116]
> 350 °C

====

Please go through the items and note down their melting point.

I'd like to know its melting point. The compound in question is CC(C)c1ccc(-c2ccn(-c3cccc(C(=O)O)c3)c2)cc1
244 to 245 °C

Could you share which melting point value was measured for Cc1cccc(-n2cnc(-c3cccc(C(=O)O)c3)n2)c1 ?
223 to 225 °C

// returns reported melting point for input O=C(O)c1cccc(-c2cnn(-c3cccc(OC(F)F)c3)c2)c1
179 to 181 °C

Any idea what melting point was measured for O=C(O)c1ccc(-n2cc(-c3ccc(Cl)cc3)nn2)cc1 ?
313 to 314 °C

If you can, please state the reported melting point value of O=C(O)c1cccc(-c2ncn(-c3ccc(F)c(Cl)c3)n2)c1 .
270 to 272 °C

Query: melting point; subject: O=C(O)c1ccc(-n2cc(-c3cccc(O)c3)cn2)cc1
273 to 275 °C

Given O=C(O)c1cccc(-c2ccn(-c3cccc(C(=O)O)c3)n2)c1 , state its recorded melting point.
> 300 °C

Query (compound): O=C(O)c1ccc(-n2cc(-c3ccncn3)cn2)cc1 ; field requested: melting point
> 350 °C

Can you share its melting point? I mean this compound: CC(=O)c1ccc(-n2ccc(-c3cccc(C(=O)O)c3)n2)cc1
215 to 216 °C

====

Provide the reported melting point of each item.

What measured melting point goes with O=C(O)c1ccc(-n2cc(-c3cccc(Cl)c3)cn2)cc1 [Compound 211] ?
252 to 255 °C

GET /values?readout=melting point&item= Cc1ccccc1-n1ccc(-c2ccc(C(=O)O)cc2)c1 [Compound 195]
208 to 209 °C

For the molecule O=C(O)c1cccc(-n2cc3c(n2)-c2cccc(OC(F)F)c2C3)c1 [Compound 185] , what melting point is on record?
240 to 241 °C

May I ask what melting point has been recorded for O=C(O)c1cccc(-c2ccn(-c3ccc(OC(F)(F)F)cc3)n2)c1 [Compound 66] ?
171 to 174 °C

Which melting point value is on record for O=C(O)c1cccc(-c2cnn(-c3ccc(Cl)cc3)c2)c1 [Compound 83] ?
205 to 206 °C

Item O=C(O)c1cccc(-n2ccc(-c3ccccc3)n2)c1 [Compound 79, 3-(3-Phenyl-pyrazol-1-yl)-benzoic acid] has what recorded melting point?
180 to 182 °C

Param item = COc1ccc2c(c1)CCc1cn(-c3ccc(C(=O)O)cc3)nc1-2 [Compound 163] ; retrieve measured melting point.
279 to 280 °C

Consider the molecule shown here: O=C(O)c1cccc(-n2cc(-c3cccc(OC(F)(F)F)c3)cn2)c1 [Compound 209] What is its recorded melting point?
166 to 168 °C

// returns reported melting point for input O=C(O)c1ccc(-n2cc(-c3cccc(Oc4ccccc4)c3)cn2)cc1 [Compound 215]
211 to 213 °C

====

measurement.name: melting point

// query melting point value for entry Cc1ccc(-n2cc(-c3cccc(C(=O)O)c3)cn2)cc1Cl
209 to 211 °C

May I ask what melting point has been recorded for Cc1ccc(-n2cc(-c3cccc(C(=O)O)c3)cn2)cc1 ?
229 to 231 °C

Any idea what its melting point is? The compound is O=C(O)c1cccc(-n2cc(-c3ccc(Cl)cc3)cn2)c1
253 to 254 °C

Fill in the blank: the reported melting point of Cc1ccc(-c2cnn(-c3ccc(C(=O)O)cc3)c2)cc1 is ____.
298 to 299 °C

Form field: reported melting point of O=C(O)c1ccc(-c2ccn(-c3ccc(Cl)cc3)c2)cc1
> 350 °C

// provenance: patent US9051342B2
